Assay: Clearance in F344 rat at 1 mg/kg, iv administered as single dose by LC-MS/MS method
Assay type: ADME, organism-based
Design: dose 1 mg/kg, route intravenous
Details: in vivo
endpoint name: clearance (mL/min/kg)

compound	val
C[C@H]1O[C@@H](O[C@H]2[C@H](O)[C@@H](O)[C@@H](O[C@H]3[C@H](O)CN[C@@H]3CO)O[C@@H]2CO)[C@H](O)[C@@H](O)[C@@H]1O	3.44

----------
Experiment: AUC (0 to infinity) in cynomolgus monkey at 1 mg/kg, iv administered as single dose by LC-MS/MS method
Type: ADME, organism-based, Macaca fascicularis
Design: time infinity, dose 1 mg/kg, route intravenous
Conditions: plasma

compound	readout units	AUC(0-inf)
C[C@H]1O[C@@H](O[C@H]2[C@H](O)[C@@H](O)[C@@H](O[C@H]3[C@H](O)CN[C@@H]3CO)O[C@@H]2CO)[C@H](O)[C@@H](O)[C@@H]1O	ng·h/mL	5890

----------
Assay: Half life in F344 rat at 3 mg/kg, iv administered as single dose by LC-MS/MS method
Format: ADME, organism-based
Parameters: dose 3 mg/kg, route intravenous
Settings: in vivo

compound	half-life
C[C@H]1O[C@@H](O[C@H]2[C@H](O)[C@@H](O)[C@@H](O[C@H]3[C@H](O)CN[C@@H]3CO)O[C@@H]2CO)[C@H](O)[C@@H](O)[C@@H]1O	23.6 h

----------
Test: Oral bioavailability in F344 rat at 0.3 mg/kg administered as single dose by LC-MS/MS method
Type: ADME, organism-based
Conditions: in vivo

compound	readout units	bioavailability
C[C@H]1O[C@@H](O[C@H]2[C@H](O)[C@@H](O)[C@@H](O[C@H]3[C@H](O)CN[C@@H]3CO)O[C@@H]2CO)[C@H](O)[C@@H](O)[C@@H]1O	%	2.44

----------
Test: Volume of distribution at steady state in F344 rat at 3 mg/kg, iv administered as single dose by LC-MS/MS method
Type: ADME, organism-based
Design: dose 3 mg/kg, route intravenous
Details: in vivo, read-out: Vdss

compound	Vd / L/kg
C[C@H]1O[C@@H](O[C@H]2[C@H](O)[C@@H](O)[C@@H](O[C@H]3[C@H](O)CN[C@@H]3CO)O[C@@H]2CO)[C@H](O)[C@@H](O)[C@@H]1O	0.219

----------
Test: AUC (0 to infinity) in F344 rat at 10 mg/kg, iv administered as single dose by LC-MS/MS method
Assay type: ADME, organism-based
Parameters: time infinity, dose 10 mg/kg, route intravenous
Conditions: plasma
endpoint name: AUC(0-inf) (ng·h/mL)

compound	val
C[C@H]1O[C@@H](O[C@H]2[C@H](O)[C@@H](O)[C@@H](O[C@H]3[C@H](O)CN[C@@H]3CO)O[C@@H]2CO)[C@H](O)[C@@H](O)[C@@H]1O	53200

----------
Experiment: AUClast in F344 rat at 0.3 mg/kg, iv administered as single dose by LC-MS/MS method
Format: ADME, organism-based
Design: time 0 - last, dose 0.3 mg/kg, route intravenous
Conditions: plasma
endpoint name: AUC(0-t) (ng·h/mL)

compound	readout units	val
C[C@H]1O[C@@H](O[C@H]2[C@H](O)[C@@H](O)[C@@H](O[C@H]3[C@H](O)CN[C@@H]3CO)O[C@@H]2CO)[C@H](O)[C@@H](O)[C@@H]1O	ng·h/mL	1860

----------
Assay: AUC (0 to infinity) in F344 rat at 0.3 mg/kg, po administered as single dose by LC-MS/MS method
Assay type: ADME, organism-based
Set-up: time infinity, dose 0.3 mg/kg, route oral
Settings: plasma

compound	AUC(0-inf)
C[C@H]1O[C@@H](O[C@H]2[C@H](O)[C@@H](O)[C@@H](O[C@H]3[C@H](O)CN[C@@H]3CO)O[C@@H]2CO)[C@H](O)[C@@H](O)[C@@H]1O	0.0456 µg·h/mL

----------
Test: AUC (0 to infinity) in cynomolgus monkey at 1 mg/kg, po administered as single dose by LC-MS/MS method
Format: ADME, organism-based, Macaca fascicularis
Parameters: dose 1 mg/kg, route oral, time infinity
Conditions: plasma

compound	AUC(0-inf) / ng·h/mL
C[C@H]1O[C@@H](O[C@H]2[C@H](O)[C@@H](O)[C@@H](O[C@H]3[C@H](O)CN[C@@H]3CO)O[C@@H]2CO)[C@H](O)[C@@H](O)[C@@H]1O	57.9

----------
Assay: Tmax in cynomolgus monkey at 10 mg/kg, po administered as single dose by LC-MS/MS method
Format: ADME, organism-based, Macaca fascicularis
Design: dose 10 mg/kg, route oral
Details: in vivo

compound	readout units	Tmax
C[C@H]1O[C@@H](O[C@H]2[C@H](O)[C@@H](O)[C@@H](O[C@H]3[C@H](O)CN[C@@H]3CO)O[C@@H]2CO)[C@H](O)[C@@H](O)[C@@H]1O	h	1.75

----------
Assay: AUClast in F344 rat at 0.3 mg/kg, po administered as single dose by LC-MS/MS method
Type: ADME, organism-based
Parameters: time 0 - last, dose 0.3 mg/kg, route oral
Details: plasma
endpoint name: AUC(0-t) (ng·h/mL)

compound	readout units	val
C[C@H]1O[C@@H](O[C@H]2[C@H](O)[C@@H](O)[C@@H](O[C@H]3[C@H](O)CN[C@@H]3CO)O[C@@H]2CO)[C@H](O)[C@@H](O)[C@@H]1O	ng·h/mL	42.1

----------
Assay: Clearance in cynomolgus monkey at 0.3 mg/kg, iv administered as single dose by LC-MS/MS method
Format: ADME, organism-based, Macaca fascicularis
Set-up: dose 0.3 mg/kg, route intravenous
Details: in vivo
endpoint name: clearance (mL/min/kg)

compound	val
C[C@H]1O[C@@H](O[C@H]2[C@H](O)[C@@H](O)[C@@H](O[C@H]3[C@H](O)CN[C@@H]3CO)O[C@@H]2CO)[C@H](O)[C@@H](O)[C@@H]1O	2.55

----------
Experiment: AUClast in cynomolgus monkey at 0.3 mg/kg, iv administered as single dose by LC-MS/MS method
Type: ADME, organism-based, Macaca fascicularis
Design: time 0 - last, dose 0.3 mg/kg, route intravenous
Details: plasma

compound	AUC(0-t) [µg·h/mL]
C[C@H]1O[C@@H](O[C@H]2[C@H](O)[C@@H](O)[C@@H](O[C@H]3[C@H](O)CN[C@@H]3CO)O[C@@H]2CO)[C@H](O)[C@@H](O)[C@@H]1O	2

----------
Assay: Oral bioavailability in F344 rat at 10 mg/kg administered as single dose by LC-MS/MS method
Type: ADME, organism-based
Conditions: in vivo
endpoint name: bioavailability

compound	val
C[C@H]1O[C@@H](O[C@H]2[C@H](O)[C@@H](O)[C@@H](O[C@H]3[C@H](O)CN[C@@H]3CO)O[C@@H]2CO)[C@H](O)[C@@H](O)[C@@H]1O	2.03%

----------
Experiment: Half life in F344 rat at 0.3 mg/kg, po administered as single dose by LC-MS/MS method
Type: ADME, organism-based
Parameters: dose 0.3 mg/kg, route oral
Settings: in vivo

compound	half-life (h)
C[C@H]1O[C@@H](O[C@H]2[C@H](O)[C@@H](O)[C@@H](O[C@H]3[C@H](O)CN[C@@H]3CO)O[C@@H]2CO)[C@H](O)[C@@H](O)[C@@H]1O	2.69

----------
Experiment: Half life in F344 rat at 10 mg/kg, iv administered as single dose by LC-MS/MS method
Format: ADME, organism-based
Parameters: dose 10 mg/kg, route intravenous
Settings: in vivo

compound	half-life
C[C@H]1O[C@@H](O[C@H]2[C@H](O)[C@@H](O)[C@@H](O[C@H]3[C@H](O)CN[C@@H]3CO)O[C@@H]2CO)[C@H](O)[C@@H](O)[C@@H]1O	21.5 h

----------
Assay: Volume of distribution at steady state in F344 rat at 0.3 mg/kg, iv administered as single dose by LC-MS/MS method
Format: ADME, organism-based
Parameters: dose 0.3 mg/kg, route intravenous
Settings: in vivo, read-out: Vdss

compound	Vd
C[C@H]1O[C@@H](O[C@H]2[C@H](O)[C@@H](O)[C@@H](O[C@H]3[C@H](O)CN[C@@H]3CO)O[C@@H]2CO)[C@H](O)[C@@H](O)[C@@H]1O	0.218 L/kg

----------
Test: Half life in F344 rat at 10 mg/kg, po administered as single dose by LC-MS/MS method
Assay type: ADME, organism-based
Parameters: dose 10 mg/kg, route oral
Settings: in vivo
endpoint name: half-life (h)

compound	endpoint name	val
C[C@H]1O[C@@H](O[C@H]2[C@H](O)[C@@H](O)[C@@H](O[C@H]3[C@H](O)CN[C@@H]3CO)O[C@@H]2CO)[C@H](O)[C@@H](O)[C@@H]1O	half-life	18.3
